# Study System: human NPY1 receptor (Homo sapiens)
# Construct: expressed in transfected cells
# Sequence (P25929 whole entry): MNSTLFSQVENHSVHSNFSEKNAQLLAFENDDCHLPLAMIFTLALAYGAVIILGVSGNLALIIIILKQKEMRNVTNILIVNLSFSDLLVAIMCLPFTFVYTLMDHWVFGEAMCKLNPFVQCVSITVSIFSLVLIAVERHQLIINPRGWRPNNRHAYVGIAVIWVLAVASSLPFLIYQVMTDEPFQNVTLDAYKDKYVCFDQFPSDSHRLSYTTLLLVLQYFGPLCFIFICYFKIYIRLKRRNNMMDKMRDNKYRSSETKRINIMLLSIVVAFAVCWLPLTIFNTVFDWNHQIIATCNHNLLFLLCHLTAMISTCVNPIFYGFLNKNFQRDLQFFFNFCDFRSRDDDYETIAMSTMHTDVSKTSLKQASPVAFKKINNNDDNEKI
# Assay Comment: Binding affinity at the human NPY1 receptor
# Reported Conditions: Table 3b; read-out: hNPY1 Ki
pKi: −log10 of the molar value. Structures can show the parent of a compound that is named as a salt.
Give pKi for every item shown.

Please give the documented pKi of CCC1=C(C(=O)O)C(c2ccc(F)c(F)c2)N(C(=O)NCCCN2CCC3(CC2)OCc2ccccc23)C(=O)N1 (single isomer, unassigned; (+)) [Example 4, HYDROCHLORIDE]
< 4.30

Please give the documented pKi of COCC1=C(C(=O)OC)C(c2ccc(F)c(F)c2)N(C(=O)NCCCN2CCC(c3cccc(NC(C)=O)c3)CC2)C(=O)N1 (single isomer, unassigned; (-)) [Example 1]
< 4.30

Please give the documented pKi of COCC1=C(C(=O)OC)[C@H](c2ccc(F)c(F)c2)N(C(=O)NCCCN2CCC(c3cccc(NC(C)=O)c3)CC2)C(=O)N1 [Example 10]
< 4.30

====

# Study System: rat MCH1 receptor (Rattus norvegicus)
# Construct: expressed in transfected cells
# Sequence (P97639 whole entry): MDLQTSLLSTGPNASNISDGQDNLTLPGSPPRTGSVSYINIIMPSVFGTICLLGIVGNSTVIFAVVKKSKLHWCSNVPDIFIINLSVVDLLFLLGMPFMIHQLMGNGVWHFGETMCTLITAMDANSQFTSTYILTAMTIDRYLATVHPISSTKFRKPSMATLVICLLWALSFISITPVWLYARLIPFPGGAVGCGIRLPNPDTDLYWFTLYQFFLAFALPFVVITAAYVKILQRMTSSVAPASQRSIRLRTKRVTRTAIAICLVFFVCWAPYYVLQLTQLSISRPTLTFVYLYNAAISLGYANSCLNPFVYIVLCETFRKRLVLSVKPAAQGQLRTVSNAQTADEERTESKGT
# Assay Comment: Binding affinity (Ki) at the rat MCH1 receptor
# Reported Conditions: Table 3c; read-out: rMCH1 Ki
Give Ki for every item shown.
Please give a number only; it is taken to be in nM.

Please give the documented Ki of CC(C)C(=O)Nc1cccc(C2CCN(CCCC(=O)c3ccc(Cl)cc3)CC2)c1 [Example 66]
2.8

Please give the documented Ki of CC(=O)Nc1cccc(C2CCN(CCCC(=O)c3ccc(Br)cc3)CC2)c1 [Example 88]
160

Please give the documented Ki of CC(=O)Nc1cccc(C2CCN(CCCNC(=O)N3C(=O)OCC3Cc3ccc(F)cc3)CC2)c1 (stereo not shown) [Example 132]
44.6

Please give the documented Ki of COC(=O)C1=C(C)NC(=O)N(C(=O)NCCCN2CCC(c3cccc(NC(C)=O)c3)CC2)[C@H]1c1ccc(F)c(F)c1 [Example 56]
0.26

Please give the documented Ki of CC(C)C(=O)Nc1cccc(C2CCN(CC[C@@H](Oc3cccc([N+](=O)[O-])c3)c3ccccc3)CC2)c1 [Example 135]
19.4

Please give the documented Ki of COc1cccc(CC(=O)Nc2cccc(C3CCN(CCCC(=O)c4ccc(Cl)cc4)CC3)c2)c1 [Example 69]
11.9

Please give the documented Ki of CC(C)C(=O)Nc1cccc(C2CCN(CCCCc3ccccc3)CC2)c1 [Example 96]
50

====

# Study System: rat MCH1 receptor (Rattus norvegicus)
# Construct: expressed in transfected cells
# Assay Comment: Binding affinity (Ki) at the rat MCH1 receptor
# Reported Conditions: Table 3c; read-out: rMCH1 Ki
# Procedure: For binding assays, pellets of transfected cells are suspended in ice-cold buffer (20 mM Tris.HCl, 5 mM EDTA, pH 7.4) and homogenized by sonication for 7 sec. The cell lysates are centrifuged at 200×g for 5 min at 4° C. The supernatants are then centrifuged at 40,000×g for 20 min at 4° C. […] Protein concentrations are determined by the method of Bradford (1976) using bovine serum albumin as the standard. […]
Give log10 Ki for every item shown.
// stored as log10 of Ki expressed in nM

Please give the documented log10 Ki of COc1cccc(CC(=O)Nc2cccc(C3CCN(CCCC(=O)c4ccccc4)CC3)c2)c1
1.32

Please give the documented log10 Ki of COc1cccc(CC(=O)Nc2cccc(C3CCN(CCCC(=O)c4ccc(OC)cc4OC)CC3)c2)c1
1.83

Please give the documented log10 Ki of CCCC(=O)Nc1cccc(C2CCN(CCCNC(=O)C3=C(COC)NC(=O)N[C@@H]3c3ccc(F)c(F)c3)CC2)c1
1.17

Please give the documented log10 Ki of CC(C)C(=O)Nc1cccc(C2CCN(CCCN3C(=O)c4ccccc4C3=O)CC2)c1
2.98

Please give the documented log10 Ki of COC(=O)C1=C(C)N=C(SCc2ccc(OC)cc2)N(C(=O)NCCCN2CCC(c3cccc(NC(C)=O)c3)CC2)C1c1ccc([N+](=O)[O-])cc1 (stereo not drawn)
1.48

Please give the documented log10 Ki of CCC(=O)Nc1cccc(C2CCN(CCCNC(=O)N3C(=O)NC(COC)=C(C(=O)OC)[C@@H]3c3ccc(F)c(F)c3)CC2)c1
-1.40
